Provenance of the data: patent US7084141B2

molecular target: MIF produced by THP-1 cells (Homo sapiens, UniProt P14174); construct: a test cell may express the MIF naturally (e.g., THP-1 cells); endogenous in cells; assay: ELISA of immunoreactive MIF from LPS stimulated THP-1 cells treated with compound; settings: LPS stimulated THP-1 cells, incubated overnight; read-out: ED50, inhibition of the ability of the antibody to recognize MIF (ELISA)
Sequence (P14174 2-115 limits assumed): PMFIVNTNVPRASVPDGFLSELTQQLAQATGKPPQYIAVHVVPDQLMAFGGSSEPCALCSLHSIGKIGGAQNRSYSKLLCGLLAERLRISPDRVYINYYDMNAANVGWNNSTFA
pEC50: −log10 of the molar value.
Test Readout: pEC50

Worked examples, 2 compounds total:
Mol Smiles: Cn1c(=O)c([N+](=O)[O-])c(N2CCN(C(=O)c3ccccc3)CC2)c2ccccc21
pEC50: ~5.70
--
Mol Smiles: CCOC(=O)c1c(N2CCN(C(=O)c3ccccc3)CC2)c2ccccc2n(C)c1=O
pEC50: ~5.70

Could you now consider this next compound?
Note to self: pEC50 of Cn1c(=O)c([N+](=O)[O-])c(N2CCN(C(=O)c3ccco3)CC2)c2ccccc21 with MIF produced by THP-1 cells (Homo sapiens, UniProt P14174) was 5.70
